Data origin: patent US12263171B2

- assayed_target: human A2a adenosine receptor (Homo sapiens (Human))
- assay: A2a receptor affinity radioligand binding assay ([3H] SCH58261, membranes from HEK293 or CHO cells)
- conditions: unstarred values: radioligand binding
pIC50: −log10 of the molar value.
assay_endpoint: pIC50

// known answers, use as guide
COc1ccc2c(c1)nc(N)n1nc([C@H]3C[C@@H](C)CN(c4cn([C@@H](C)[C@H](C)O)nc4C)C3)nc21 [Example 219A]; 9.30
COc1ccc2c(c1)nc(N)n1nc(C3CCCCN(c4cnn(CC(C)(C)O)c4)C3)nc21 (stereo not shown); 8.34
COc1ccc2c(c1)nc(N)n1nc([C@@H]3C[C@@H](C)CN(c4cnn(CC(C)(C)O)c4)C3)nc21 [Example 195B]; 8.77
COc1cccc2c1nc(N)n1nc([C@@H]3CCCN(c4ccc(=O)n(CC(F)(F)F)c4)C3)nc21; 8.36
COc1cccc2c1nc(N)n1nc([C@@H]3CC[C@H](C)N(c4cnn(C(C)C(C)(C)O)c4)C3)nc21 (stereo partly shown) [Example 147D]; 9.70

1: COc1cccc2c1nc(N)n1nc([C@@H]3CCCN(c4cnn(C5CCCC5(C)O)c4)C3)nc21 (single isomer, unassigned) [Example 59A]
2: COc1c(Cl)ccc2c1nc(N)n1nc(C3CCCN(c4cnn(C)c4)C3)nc21 (single isomer, unassigned)
Of the two listed items, 1 and 2 , which carries the larger pIC50 figure? Label of pick, please.
1

* * *

- assayed_target: human A2a adenosine receptor (Homo sapiens (Human), UniProt P29274)
- Sequence (P29274 whole entry): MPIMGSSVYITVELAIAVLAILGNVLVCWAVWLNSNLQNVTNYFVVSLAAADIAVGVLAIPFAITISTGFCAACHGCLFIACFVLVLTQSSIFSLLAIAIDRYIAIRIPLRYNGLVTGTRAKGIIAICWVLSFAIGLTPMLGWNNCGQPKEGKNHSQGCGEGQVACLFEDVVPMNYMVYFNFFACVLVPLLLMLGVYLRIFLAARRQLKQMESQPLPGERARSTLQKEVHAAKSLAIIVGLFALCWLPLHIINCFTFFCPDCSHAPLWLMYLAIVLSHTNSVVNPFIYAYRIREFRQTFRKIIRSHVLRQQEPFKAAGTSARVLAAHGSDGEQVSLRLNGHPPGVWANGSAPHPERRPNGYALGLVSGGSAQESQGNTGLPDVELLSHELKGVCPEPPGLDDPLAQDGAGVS
- assay: A2a receptor affinity radioligand binding assay ([3H] SCH58261, membranes from HEK293 or CHO cells)
- conditions: unstarred values: radioligand binding
assay_endpoint: IC50 (nM)

Reference set (4 entries):
C[C@H]1CC[C@@H](c2nc3c4ccc(C#N)cc4nc(N)n3n2)CN1c1cnn(CC(C)(C)O)c1; 4.2
COc1cccc2c1nc(N)n1nc([C@@H]3CCCN(c4ccc(=O)n(C)c4)C3)nc21; 2
COc1cccc2c1nc(N)n1nc([C@@H]3CCCN(c4ccn(CC(C)(C)O)n4)C3)nc21; 2
COc1cccc2c1nc(N)n1nc([C@@H]3CCCN(c4ncn(CC(F)(F)F)n4)C3)nc21; 0.6

P: COc1cccc2c1nc(N)n1nc([C@@H]3CCCN(c4cnn(CC(F)(F)F)c4)C3)nc21
Q: CC[C@H]1CC[C@@H](c2nc3c4cccc(OC)c4nc(N)n3n2)CN1c1cnn(CC(C)(C)O)c1 [Example 216C]
R: CCNC(=O)C(C)(C)n1cc(N2CCC[C@@H](c3nc4c5cccc(OC)c5nc(N)n4n3)C2)cn1
S: COc1cccc2c1nc(N)n1nc([C@@H]3CCCN(c4cnccc4C(F)(F)F)C3)nc21
Sort by IC50, descending. Dear reader, please state the labels in the requested order.
Q, S, R, P

a: COc1cccc2c1nc(N)n1nc([C@@H]3C[C@@H](F)CN(c4cnn(C5CC5)c4)C3)nc21 [Example 148B]
b: CCn1cc(N2CCC[C@@H](c3nc4c5cccc(OC)c5nc(N)n4n3)C2)cn1
Task for the reader: decide whether a or b has the larger IC50. Write the label of whichever entry you select.
a

P: COc1cccc2c1nc(N)n1nc([C@@H]3CCCN(c4nnc5n4CCNC5)C3)nc21
Q: COc1cccc2c1nc(N)n1nc([C@@H]3CCCN(c4cnn([C@@H]5CCNC5)c4)C3)nc21
R: CCn1cc(N2CC[C@@H](c3nc4c5cccc(OC)c5nc(N)n4n3)C2)cn1
S: COc1cccc2c1nc(N)n1nc(C3CCCN(c4cnn(C)c4)[C@@H]3C)nc21 (some centres unmarked) [Example 128B]
Sort the compounds on IC50; start with the lowest figure. Labels, ranked as asked.
P, Q, R, S
(P: 0.2 nM, Q: 2.6 nM, R: 19 nM, S: 6300 nM)

1: COc1cccc2c1nc(N)n1nc([C@@H]3CCCN(c4ccc(=O)n(C5CC5)c4)C3)nc21
2: COc1cccc2c1nc(N)n1nc([C@@H]3CCCN(c4ncccn4)C3)nc21
Which item exceeds the other in IC50, 1 or 2 ? In your reply, give the label of the chosen option.
1
(1: 2.3 nM, 2: 0.9 nM)

1: COc1cccc2c1nc(N)n1nc([C@@H]3CCCN(c4ncn(C)n4)C3)nc21
2: Cn1cc(N2CCCC(c3nc4c5c(C(F)(F)F)cccc5nc(N)n4n3)C2)cn1 (single isomer, unassigned)
3: COc1cccc2c1nc(N)n1nc([C@@H]3CCCN(c4cnn(C5CCC5O)c4)C3)nc21 (single isomer, unassigned) [Example 60B]
4: COc1cccc2c1nc(N)n1nc(C3CCCC(c4cnn(CC(C)(C)O)c4)C3)nc21 (single isomer, unassigned)
Falling order of IC50, please. Reply with the labels, ordered as the question asks.
2, 4, 3, 1
(2: 204 nM, 4: 3.4 nM, 3: 2 nM, 1: 0.8 nM)

1: COc1cccc2c1nc(N)n1nc(C3CCC(C)N(c4cnn(CC(F)(F)F)c4)C3)nc21 (single isomer, unassigned) [Example 142D]
2: CCn1cc(N2C[C@H](c3nc4c5cccc(OC)c5nc(N)n4n3)CC[C@H]2C)cn1 [Example 140B]
3: Cn1cc(N2CCCC(c3nc4c5c(Cl)ccc(Cl)c5nc(N)n4n3)C2)cn1 (single isomer, unassigned)
4: COc1cccc2c1nc(N)n1nc([C@@H]3CCCN(c4cnn(C5CCOC5)c4)C3)nc21 (single isomer, unassigned) [Example 57A]
Falling order of IC50, please. Answer by naming the labels in the order asked.
3, 2, 1, 4
(3: 7.7 nM, 2: 1.3 nM, 1: 0.9 nM, 4: 0.4 nM)

A: COc1cccc2c1nc(N)n1nc([C@@H]3CCC[C@](O)(c4cnn(CC(C)(C)O)c4)C3)nc21 (single isomer, unassigned)
B: COc1cccc2c1nc(N)n1nc([C@@H]3CCCN(c4cnc(C)cn4)C3)nc21
C: Cn1cc(N2CCCC(c3nc4c5cccc(F)c5nc(N)n4n3)C2)cn1 (single isomer, unassigned) [Example 131B]
In this exercise, place the 3 compounds in ascending sequence of their recorded IC50. Put the labels in the requested order and list them out.
B, A, C

* * *

- assayed_target: human A2b adenosine receptor (Homo sapiens (Human), UniProt P29275)
- Sequence (P29275 whole entry): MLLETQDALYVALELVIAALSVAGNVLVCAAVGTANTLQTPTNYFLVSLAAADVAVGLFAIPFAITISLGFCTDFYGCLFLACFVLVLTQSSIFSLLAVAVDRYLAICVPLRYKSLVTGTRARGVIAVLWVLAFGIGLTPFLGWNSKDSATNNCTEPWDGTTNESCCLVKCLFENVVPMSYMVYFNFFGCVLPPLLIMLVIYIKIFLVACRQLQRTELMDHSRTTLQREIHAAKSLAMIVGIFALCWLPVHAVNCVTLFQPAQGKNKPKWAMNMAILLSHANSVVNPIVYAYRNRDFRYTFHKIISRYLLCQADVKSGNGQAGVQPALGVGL
- assay: A2b radioligand filtration binding assay (tritiated proprietary A2b antagonist, HEK293 membranes)
- conditions: @ 10000 nM, unstarred
assay_endpoint: A2B binding % inh. @ 10000 nM (% inh. @ 10000 nM)

Take a look at these entries with their results.
COc1cccc2c1nc(N)n1nc(C3CCCN(c4cnn(C)c4)[C@H]3C)nc21 (some centres unmarked) [Example 128A]; 18
COc1cccc2c1nc(N)n1nc(C3CC(F)CN(c4cnn(CC(C)(C)O)c4C)C3)nc21 (centres unmarked); 38
COc1cccc2c1nc(N)n1nc(C3CC(F)CN(c4cnn(CC(C)(C)O)c4)C3)nc21 (centres unmarked); 32

1: C[C@H]1CC[C@@H](c2nc3c4ccc(C5CNC5)cc4nc(N)n3n2)CN1c1cnn(CC(C)(C)O)c1 (single isomer, unassigned)
2: COc1cccc2c1nc(N)n1nc(C3CC(F)CN(c4cnn(CC5(O)CCC5)c4)C3)nc21 (centres unmarked)
// compare measured A2B binding % inh. @ 10000 nM, left 1 , right 2 , return larger Your choice should be expressed through its label.
2

* * *

- assayed_target: human A2b adenosine receptor (Homo sapiens (Human))
- assay: A2B antagonism in cAMP cell-based assay (LANCE cAMP, HEK293 cells, 600 nM adenosine)
- conditions: values marked *: cAMP cell-based assay
assay_endpoint: IC50 (nM)

A: COc1ccc2c(c1)nc(N)n1nc([C@H]3C[C@@H](C)CN(c4cn([C@H](C)[C@@H](C)O)nc4C)C3)nc21 [Example 219C]
B: Cn1cc(N2CCCC(c3nc4c5cccc(Cl)c5nc(N)n4n3)C2)cn1 (single isomer, unassigned) [Example 132B]
Decide: A or B , by lowest recorded IC50. # reply format: chosen label
B

P: COc1cccc2c1nc(N)n1nc([C@@H]3CCCN(c4cnn(C(C)(C)C(=O)O)c4)C3)nc21 [Example 28]
Q: COc1cccc2c1nc(N)n1nc(C3CCC(C)N(c4cnn(C5CC5)c4)C3)nc21 (single isomer, unassigned) [Example 141B]
API: POST /compare with P and Q ; response names the item with higher IC50. Write down the label of the entry you select.
Q
(Q: 2610 nM, P: 48.3 nM)

A: COc1cccc2c1nc(N)n1nc([C@@H]3CCCN(c4cnn(CC5CC5)c4)C3)nc21 [Example 16]
B: COc1cccc2c1nc(N)n1nc([C@@H]3CCCN(c4ccccn4)C3)nc21 [Example 119]
C: CC[C@H]1CC[C@H](c2nc3c4cccc(OC)c4nc(N)n3n2)CN1c1cnn(CC(C)(C)O)c1 [Example 216B]
Order each entry by recorded IC50, climbing from the minimum. Give the labels in the order specified.
C, B, A
(C: 6.6 nM, B: 18.1 nM, A: 92.8 nM)
